biological target: Endothelin-1 receptor (Rattus norvegicus, UniProt P26684); assay: Binding affinity towards endothelin A receptor in prolactin secreting rat pituitary cells using [125I]ET1 as radioligand.
Sequence (P26684 whole entry): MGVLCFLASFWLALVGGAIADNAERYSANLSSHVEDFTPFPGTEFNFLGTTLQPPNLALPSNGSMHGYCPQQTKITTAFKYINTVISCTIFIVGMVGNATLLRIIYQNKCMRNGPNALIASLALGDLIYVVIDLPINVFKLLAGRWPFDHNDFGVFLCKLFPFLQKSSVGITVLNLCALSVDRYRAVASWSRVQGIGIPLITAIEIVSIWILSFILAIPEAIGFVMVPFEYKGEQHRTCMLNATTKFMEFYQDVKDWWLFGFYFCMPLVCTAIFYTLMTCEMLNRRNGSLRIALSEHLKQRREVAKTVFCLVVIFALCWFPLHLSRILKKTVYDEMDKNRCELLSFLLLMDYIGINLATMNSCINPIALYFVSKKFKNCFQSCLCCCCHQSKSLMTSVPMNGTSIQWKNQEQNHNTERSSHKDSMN
Observable: IC50 (nM)

Completed entries (count: 3):
CCCCN(CCCC)C(=O)CN1C[C@H](c2cccc(F)c2)[C@@H](C(=O)O)[C@@H]1c1ccc(OC)cc1; 5
CCCN(C)C(=O)CN1C[C@H](c2ccc(OC)c(OC)c2)[C@@H](C(=O)O)[C@@H]1c1ccc(OC)cc1; 730
CCCCN(CCCC)C(=O)CN1C[C@H](c2ccc3c(c2)CCO3)[C@@H](C(=O)O)[C@@H]1c1ccc(OC)cc1; 0.6

(I) CCCN(C)C(=O)CN1C[C@H](c2ccc3ccccc3c2)[C@@H](C(=O)O)[C@@H]1c1ccc(OC)cc1
(II) CCCCN(CCCC)C(=O)CN1C[C@H](c2ccc3ccoc3c2)[C@@H](C(=O)O)[C@@H]1c1ccc(OC)cc1
### Prompt Which value of IC50 is numerically greater: that of I or that of II ? Answer with the label corresponding to your selection.
### Response I
(I: 2300 nM, II: 0.7 nM)

(A) CCCCN(CCCC)C(=O)CN1C[C@H](c2ccc3c(c2)OCCO3)[C@@H](C(=O)O)[C@@H]1c1ccc(OC)cc1
(B) CCCCN(CCCC)C(=O)CN1C[C@H](c2cccc3occc23)[C@@H](C(=O)O)[C@@H]1c1ccc(OC)cc1
### Prompt Which value of IC50 is numerically greater: that of A or that of B ? Answer with the label corresponding to your selection.
### Response B
(B: 2 nM, A: 0.8 nM)
